For each of the sequences below, state its recombinant barcode read abundance (log10).
experiment: recombinant barcode read abundance after kanamycin selection (control-corrected) (log10(CPM+1)); higher = more efficient recombination; sequences stand for … in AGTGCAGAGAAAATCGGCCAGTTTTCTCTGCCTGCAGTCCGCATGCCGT…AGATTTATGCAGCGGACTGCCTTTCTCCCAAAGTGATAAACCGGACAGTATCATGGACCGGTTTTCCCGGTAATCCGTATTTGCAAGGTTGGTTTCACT; site = the 11-nt target;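 note: IS621 recombinase and bridge RNA in Escherichia coli cells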

# input Name the recorded recombinant barcode read abundance (log10) of the sequence listed here: TAGTAGTCTTGGGTTCTAACCTGTTGCGT (site TAGTAGTCTAG)
# output 0.729

# input Report recombinant barcode read abundance (log10) for GAGACTCCTTGGGTTCTAACCTGTTGCAG (site GAGACTCCTGT)
# output 0.509

# input Identify recombinant barcode read abundance (log10) associated with the sequence CTCCGGCCTTGGGTTCTAACCTGTTGCTT (site CTCCGGCCTAA)
# output 0.521

# input Please give measured recombinant barcode read abundance (log10) of the following entry: GCGCTCCCTTGGGTTCTAACCTGTTGCCT (site GCACTCCCTAG)
# output 1.25

# input Check the records and state recombinant barcode read abundance (log10) for GCCGGGCCTTGGGTTCTAACCTGTTGCCT (site GCCGGGCCTAG)
# output 0.265

# input // fetch recombinant barcode read abundance (log10) given entry TAGGCTACTTGGGTTCTAACCTGTTGCAG (site TAGGCTACTAT)
# output 0.206

# input Identify measured recombinant barcode read abundance (log10) corresponding to CATTAGCCTTGGGTTCTAACCTGTTGCCT (site CATAAGCCTAG)
# output 0.0881

# input Give recorded recombinant barcode read abundance (log10). TAAGTCCCTTGGGTTCTAACCTGTTGCCT (site TAAGTCCCTAG)
# output 1.9

# input Note recombinant barcode read abundance (log10) for the sequence shown: CTAGGCCCTTGGGTTCTAACCTGTTGCGT (site CTAGGCCCTAC)
# output 3.3

# input Determine its reported recombinant barcode read abundance (log10): GAAGTCCCTTGGGTTCTAACCTGTTGCCT (site GAAGTCCCTAG)
# output 1.82

# input State its recombinant barcode read abundance (log10) for this sequence: CTAAGGTCTTGGGTTCTAACCTGTTGCTT (site CTAAGGTCTAG)
# output 0.186

# input Please give the documented recombinant barcode read abundance (log10) of GCAGAGTCTTGGGTTCTAACCTGTTGCCT (site GCAGAGTCTAG)
# output 2.1

# input Tell us which recombinant barcode read abundance (log10) value is on record for GGTCCAACTTGGGTTCTAACCTGTTGCCT (site GGTCGAACTAG)
# output 0.0176

# input Given the sequence TTCTACTCTTGGGTTCTAACCTGTTGCCT (site TTCTACTCTAG) , write its reported recombinant barcode read abundance (log10).
# output 0.405

# input Please indicate recombinant barcode read abundance (log10) recorded for GAGTAGTCTTGGGTTCTAACCTGTTGCCT (site GAGCAGTCTAG)
# output 1.27

# input Output recombinant barcode read abundance (log10) of TATTGGACTTGGGTTCTAACCTGTTGCAG (site TATTGGACTTT)
# output 0.14

# input Report measured recombinant barcode read abundance (log10); entry is CGAGCTCCTTGGGTTCTAACCTGTTGCCT (site CGAGCTCCTAG)
# output 1.24

# input For the sequence CTCTCGGCTTGGGTTCTAACCTGTTGCCT (site CTCTCGGCTAG) , give its reported recombinant barcode read abundance (log10).
# output 0.865

# input Assign recombinant barcode read abundance (log10) to the following record: TCTGGGCCTTGGGTTCTAACCTGTTGCTT (site TCTGGGCCTTA)
# output 0.525

# input Respond only with recombinant barcode read abundance (log10) recorded for CCTAGCACTTGGGTTCTAACCTGTTGCGA (site CCTCGCACTTC)
# output 0.0896

# input Assign recombinant barcode read abundance (log10) to the following record: ACCAAAGCTTGGGTTCTAACCTGTTGCCA (site ACCAAAGCTTG)
# output 0.115

# input Tell us which recombinant barcode read abundance (log10) value is on record for TACAACACTTGGGTTCTAACCTGTTGCGT (site GTAGGTCCTCG)
# output 0.318

# input Quick one: give measured recombinant barcode read abundance (log10) for ATCGGAGCTTGGGTTCTAACCTGTTGCAG (site ATCGGAGCTCG)
# output 0.294

# input Write down recombinant barcode read abundance (log10) measured for item GTATGACCTTGGGTTCTAACCTGTTGCTT (site GTATGACCTAA)
# output 1.54

# input Tell me its recombinant barcode read abundance (log10) given TGCCCTCCTTGGGTTCTAACCTGTTGCTT (site TGCCCTCCTAA) as the entry.
# output 0.0976

# input Please supply the value of reported recombinant barcode read abundance (log10) for the item GTCCACCCTTGGGTTCTAACCTGTTGCAG (site GTCCACCCTCT)
# output 1.86

# input Item CGGCTTCCTTGGGTTCTAACCTGTTGCGT (site CAACTTCCTAC) : provide recombinant barcode read abundance (log10)
# output 0.117

# input Identify recombinant barcode read abundance (log10) associated with the sequence AGAATAGCTTGGGTTCTAACCTGTTGCAG (site AGGATAGCTCA)
# output 0.0664

# input Please give the documented recombinant barcode read abundance (log10) of GCTCTCCCTTGGGTTCTAACCTGTTGCCT (site GCTCTCCCTAG)
# output 0.305

# input Return the recorded recombinant barcode read abundance (log10) value; entry: TGTGACTCTTGGGTTCTAACCTGTTGCCT (site TGTGACTCTAG)
# output 0.912

# input Return recombinant barcode read abundance (log10) (reported value) for this sequence: TGGTATACTTGGGTTCTAACCTGTTGCCT (site TGGTATCCTAG)
# output 0.0279

# input Assign recombinant barcode read abundance (log10) to the following record: ACCCGCTCTTGGGTTCTAACCTGTTGCCT (site ACCCGCTCTAG)
# output 0.542

# input Answer with the recorded recombinant barcode read abundance (log10) of TCTGAAACTTGGGTTCTAACCTGTTGCCT (site TCTGAAACTAG) only.
# output 0.413

# input Fill in recombinant barcode read abundance (log10) for record TTAAAACCTTGGGTTCTAACCTGTTGCCT (site TTAAAACCTAG)
# output 0.751

# input Give recombinant barcode read abundance (log10) for the following sequence: ATATTATCTTGGGTTCTAACCTGTTGCCA (site ATATTATCTTG)
# output 0.29

# input Provide measured recombinant barcode read abundance (log10) value, entry: CTCTACCCTTGGGTTCTAACCTGTTGCGT (site CTCTAACCTAC)
# output 0.272

# input Look up and state reported recombinant barcode read abundance (log10) for GAGTTTCCTTGGGTTCTAACCTGTTGCGT (site GAGTTACCTAC)
# output 0.142

# input Quote recombinant barcode read abundance (log10) reported for GAAATGTCTTGGGTTCTAACCTGTTGCCT (site GGAATGTCTAG) please.
# output 0.262

# input Find the measured recombinant barcode read abundance (log10) of TGTCGGACTTGGGTTCTAACCTGTTGCAA (site TGTCGGACTTT) and report it.
# output 0.421

# input Give a short answer stating reported recombinant barcode read abundance (log10) for CTTAGTACTTGGGTTCTAACCTGTTGCAT (site CTTAGTACTAT) .
# output 0.246

# input Look up and state reported recombinant barcode read abundance (log10) for TACCGTCCTTGGGTTCTAACCTGTTGCAT (site TACCGTCCTAT)
# output 1.18

# input Return value of recombinant barcode read abundance (log10) for input GAGGTAGCTTGGGTTCTAACCTGTTGCCT (site GAGGTAGCTAG) , no commentary.
# output 1.18
